Could you please report measured Kd for the items listed next?
Molecular target: T1, GFP-9S library array, motif 4 ND N98G;D124K (synthetic construct, N98G;D124K)
T1 chain: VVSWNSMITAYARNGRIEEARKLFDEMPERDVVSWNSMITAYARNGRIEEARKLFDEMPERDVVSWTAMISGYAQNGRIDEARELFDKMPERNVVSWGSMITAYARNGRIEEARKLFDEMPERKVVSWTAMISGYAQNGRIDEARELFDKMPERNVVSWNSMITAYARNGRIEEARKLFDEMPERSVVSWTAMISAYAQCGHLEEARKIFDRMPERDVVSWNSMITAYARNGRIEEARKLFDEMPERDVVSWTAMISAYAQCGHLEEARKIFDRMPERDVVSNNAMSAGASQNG
Assay: high-throughput RNA pulldown from lysate on Ni-NTA beads; HRP: 50 mM Tris pH 8, 150 mM NaCl, 1 mM beta-mercaptoethanol, 50 ug/ml BSA, 3 ug/ml yeast RNA, 0.5% heparin; ITC and FP: Tris pH 8, 200 mM KCl, 5% glycerol; MST: 50 mM Tris pH 8, 200 mM NaCl, 1 mM DTT, BSA, heparin, 0.05% Tween 20
Conditions: tags: N-terminal His-eGFP; label: 5' Cy5
Numbers only, in nM.

Prompt line: Tell me the measured Kd of AUUAGACGUGA (ssRNA) [Cy5-rpoA-G] , please.
Response line: 65.4

// moving on: another record for Kd
Prompt line: Tell me the measured Kd of AUUACACGUGA (ssRNA) [Cy5-rpoA] , please.
Response line: 103
